# assayed.target: T1, ECF37_2513
# T1 chain: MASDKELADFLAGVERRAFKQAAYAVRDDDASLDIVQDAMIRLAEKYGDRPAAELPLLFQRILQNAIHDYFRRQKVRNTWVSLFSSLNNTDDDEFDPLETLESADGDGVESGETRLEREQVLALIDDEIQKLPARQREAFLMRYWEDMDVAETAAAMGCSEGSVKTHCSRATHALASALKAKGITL
quantity.measured: fold repression
Number, no unit, nothing else.

Here's what some known entries look like.
| binder | experimental.result |
| --- | --- |
| AS11_987 (protein) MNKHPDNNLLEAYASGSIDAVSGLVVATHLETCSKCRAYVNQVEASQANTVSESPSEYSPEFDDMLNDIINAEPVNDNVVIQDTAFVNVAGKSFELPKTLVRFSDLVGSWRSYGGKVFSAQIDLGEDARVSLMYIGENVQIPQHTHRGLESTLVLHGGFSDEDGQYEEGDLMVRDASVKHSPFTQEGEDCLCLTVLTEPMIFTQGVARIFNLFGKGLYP | 1.66 |
| AS33_423 (protein) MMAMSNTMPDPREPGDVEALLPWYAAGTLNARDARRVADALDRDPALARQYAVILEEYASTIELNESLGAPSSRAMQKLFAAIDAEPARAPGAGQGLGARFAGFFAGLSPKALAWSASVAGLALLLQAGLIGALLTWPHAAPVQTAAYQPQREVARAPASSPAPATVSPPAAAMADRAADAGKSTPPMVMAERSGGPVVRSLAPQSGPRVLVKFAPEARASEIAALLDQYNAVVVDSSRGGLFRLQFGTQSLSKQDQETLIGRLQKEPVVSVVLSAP | 10 |

**Query** // fetch fold repression given entry AS22_4450 (protein) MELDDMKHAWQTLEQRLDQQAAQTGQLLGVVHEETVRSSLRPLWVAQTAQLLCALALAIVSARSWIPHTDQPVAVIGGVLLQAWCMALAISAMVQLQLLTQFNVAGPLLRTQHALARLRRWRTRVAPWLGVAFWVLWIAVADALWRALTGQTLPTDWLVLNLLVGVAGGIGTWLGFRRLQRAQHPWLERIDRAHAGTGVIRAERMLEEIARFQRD
**Result** 1.51
